Entries and their phosphorylation enrichment values follow.
Test system: c-Abl (mouse);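 note: 11-residue human phosphosite peptides and single-mutation variants displayed on the E. coli surface, counted by deep sequencing, each peptide's frequency after selection divided by its frequency in the unselected input library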;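 note: frequency after pTyr selection over input frequency; kinase dosed for 20-30% of maximal phosphorylation in three min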
run description: phosphorylation enrichment, bacterial display (enrichment ratio); higher = better substrate or ligand; peptides without Tyr show the background
// response body must contain only the number

[[record]]
ordered_residues = "AAYNRYDQERF [CDC73_Y293]"
measured_property = "phosphorylation enrichment"
test_value = 0.512

[[record]]
ordered_residues = "HLQQSNLPRGT [TEX45_Y396_Y396N]"
measured_property = "phosphorylation enrichment"
test_value = 0.703

[[record]]
ordered_residues = "KPLMPCMRYSR [SMARCE1_Y73_Y73C]"
measured_property = "phosphorylation enrichment"
test_value = 0.781


Fill in phosphorylation enrichment for record AHAGEHGAEAL [HBA1_Y25_Y25H]
0.454

Report phosphorylation enrichment, nothing else, for this sequence: LSAPWYLNRIS [HEXA_Y421]
0.447

Answer with the recorded phosphorylation enrichment of IRDENYGEGSS [ACO2_Y665_G661R] only.
0.639

Please look at this sequence and report its phosphorylation enrichment: KSMFVYCTPNK [ATP2A2_Y497_S495F]
1.05

Assign phosphorylation enrichment to the following record: SVVVPYEPLEV [TP53_Y220_P223L]
0.697

Tell me phosphorylation enrichment reported for VICRRYLVMQR [IL3RA_Y328]
0.618

The reported measurements were obtained from the supplement of paper PMC10065799.
